Catalogue of growth values
system: M14 melanoma; assay: NCI-60 one-dose screen, 48 h (100 = growth as untreated, 0 = no growth, -100 = all killed); settings: 10 µM unless noted
About 83,000 compounds went through this panel and 20% of them were active in at least one assay; those are over-represented in the sample as a whole.
Write down the numeric answer in % and omit the unit.

Solved entries (count: 8):
[[record]]
compound = "O=c1c2cnn(-c3ccccc3)c2n2c(CN3CCOCC3)nnc2n1-c1ccccc1"
readout_number = 98.2

[[record]]
compound = "O=C(CSc1oc(-c2ccccc2)nc1S(=O)(=O)c1ccccc1)Nc1ccc(F)cc1"
readout_number = 90.2

[[record]]
compound = "CC(O)(c1ccccc1)C(c1ccccc1)C1CCCCN1 (stereo not given)"
readout_number = 92.3

[[record]]
compound = "CC(=O)c1c(C)nc2ccccc2c1/C=C/c1ccc(F)cc1"
readout_number = 107

[[record]]
compound = "COC(=O)CC[C@@H]1O[C@@H](c2cccc(C(F)(F)F)c2)[C@@H](O)[C@H]1O"
readout_number = 102

[[record]]
compound = "CCn1cc(C(=O)NNC(=S)Nc2ccc(C)cc2)c(=O)c2ccc(C)nc21"
readout_number = 113

[[record]]
compound = "O=C(N/N=C/c1ccc(Cl)cc1)c1[nH]c2ccc(Cl)cc2c1-c1ccccc1"
readout_number = 20.2

[[record]]
compound = "O=C1Nc2ccccc2/C1=C/c1nc2ccccc2c(=O)[nH]1"
readout_number = 82.2


# query: growth of entry Cc1cc(S(=O)(=O)/N=C(\N)n2nc(C)c(C)c2C)c(SCc2ccccc2)cc1Cl
74.6

// next record Ic1ccc(OCCCCn2ccnc2)cc1
49.6

====

system: OVCAR-4 ovarian; assay: NCI-60 one-dose screen, 48 h (100 = growth as untreated, 0 = no growth, -100 = all killed); details: 10 µM unless noted
This is part of a sample that, as a whole, favours compounds with a hit. Of some 83,000 tested, about 20% had one in any assay.
measure: growth (%)
Entry rule: numbers only, all in %.

Illustrative cases are given below, each with its answer.
[[record]]
molecule = "C=C1C(=O)O[C@H]2[C@H]1CC/C(COC(=O)/C=C\\C(=O)NCc1ccc(Cn3c(=O)sn(CCI)c3=O)cc1)=C\\CC[C@@]1(C)O[C@@H]21"
measure = "growth"
readout_number = 48.3

[[record]]
molecule = "CN(C)Cc1ccc(O)c(C(=O)O)c1"
measure = "growth"
readout_number = 118

[[record]]
molecule = "Cc1cc(C(=O)O)c(C)n1-c1cccc(C(=O)O)c1"
measure = "growth"
readout_number = 91.4

[[record]]
molecule = "COc1ccc(CN2c3ccccc3Sc3ccccc32)cc1F"
measure = "growth"
readout_number = 49.2

[[record]]
molecule = "CCOC(=O)c1c(NC(=O)c2ccc(Cl)cc2)sc2c(CN(C)C)c(O)ccc12"
measure = "growth"
readout_number = 73.5

[[record]]
molecule = "O=C(COc1ccc(-c2nc3cc(Cl)c(Cl)cc3[nH]2)cc1)N=Nc1c(O)[nH]c2ccc(Cl)cc12"
measure = "growth"
readout_number = 64.2


Give OVCAR-4 ovarian growth for CSc1nc2ncc([N+](=O)[O-])c(=O)n2[nH]1
102

// query: CC(C)=CCCC(C)c1ccc(C)c2c1OCN(CCCCCO)C2 (stereo not given)
95.4

Also C=CC[Se]C(=O)Cc1c(C)n(C(=O)c2ccc(Cl)cc2)c2ccc(OC)cc12 , if possible.
-50.7

Next: Fc1cccc(Oc2ccc(Nc3ncnc4ccc(OCCCN5CCOCC5)cc34)cc2Cl)c1
53.5

====

test system: NCI-H23 lung; assay: NCI-60 one-dose screen, 48 h (100 = growth as untreated, 0 = no growth, -100 = all killed); details: 10 µM unless noted
About 83,000 compounds went through this panel and 20% of them were active in at least one assay; those are over-represented in the sample as a whole.
The molecules listed here are annotated with their growth.
Field format: number, assumed %, no unit text.

Solved entries (count: 3):
[[record]]
molecule = "CCn1cc(C(=O)NNC(=S)Nc2ccc(C)cc2)c(=O)c2ccc(C)nc21"
units_label = "%"
readout_number = 102

[[record]]
molecule = "Cn1cc(-c2ccc3nc(-c4ccc(CC(=O)ONc5cc(C(C)(C)C)on5)cc4)cnc3c2)cn1"
units_label = "%"
readout_number = 43.7

[[record]]
molecule = "CCCC/C=C/[C@@H]1C[C@H]1CCO"
units_label = "%"
readout_number = 102


Would you mind telling me what growth value was observed for Cc1[nH]c(=O)[nH]c(=O)c1Br ?
97.9

Also Clc1cccc(Nc2ncnc3ccc(-c4cnc5[nH]ccc5c4)cc23)c1 ?
84.4

Subsequent entry: C=C1CC[C@@H]2[C@](C)(COC(C)=O)[C@H](OC(C)=O)CC[C@@]2(C)[C@@H]1CC(Nc1ccc(S(=O)(=O)Nc2ncccn2)cc1)C1=CCOC1=O (stereo partly drawn)
29.6

Query OCCn1cc(-c2nc(-c3c[nH]c4ncccc34)cs2)c2ccccc21 next
71.9

Next molecule up: COC12C=C/C(=C(/C(=O)OCc3ccncn3)C(=O)CCCCCCCCC3(OC)C=C/C(=C(/C(=O)OCc4ccncn4)C(=O)CCCCCCCC1)O3)O2
-37.2

Moving on to the next molecule: CSc1nnc(-c2cc3c([nH]c4ccccc43)c(-c3cccc(O)c3)n2)n1-c1ccccc1
55.1

Same read-out for O=C(Nc1nc2cc(C(=O)N3CCN(C(c4ccccc4)c4ccccc4)CC3)ccc2o1)c1ccc(NC2CCCCC2)c([N+](=O)[O-])c1 ?
69.5

Cool, now C=CC[Se]C(=O)Cc1c(C)n(C(=O)c2ccc(Cl)cc2)c2ccc(OC)cc12
-18.2

Now the same for Nc1ncnc2c1C(c1ccc(Br)cc1)c1sc3c(F)cccc3c1O2 (stereo not drawn)
88.5

Also, Clc1ccc2c(NC3CCC(N4CCOCC4)CC3)ccnc2c1 (stereo not drawn) please.
62.2

Input N#Cc1nc(-c2ccc(Cl)cc2)oc1S(=O)(=O)N1CCN(c2ccc(F)cc2)CC1
88.6

Now the same for Oc1c(Br)cc(Br)c2ccc(Cn3cc(-c4ccccc4C(F)(F)F)nn3)nc12
106

Try the molecule CCNCCNc1cc(-c2ccc(C(F)(F)F)cc2)c(C#N)c2nc3ccccc3n12
-83.7

Also check Cc1ccc(/C=C2\COc3ccc(O)cc3C2=O)cc1
94.7

// repeat for Fc1cccc(Oc2ccc(Nc3ncnc4ccc(OCCCN5CCOCC5)cc34)cc2Cl)c1 and report
73.5

Again, but for Cc1cc(S(=O)(=O)/N=C(\N)n2nc(C)c(C)c2C)c(SCc2ccccc2)cc1Cl
54.6

Further, for CCCNC(=O)Nc1ccc2cc3ccc(NC(=O)NCCC)cc3nc2c1 ?
86.4

Queued: COc1ccc(C2=Nc3c(N)nc(N)nc3NC(c3cccc(Nc4ccnc5cc(C(F)(F)F)ccc45)c3)C2)cc1 (stereo not drawn)
85.8

====

system: SNB-19 CNS; test: NCI-60 one-dose screen, 48 h (100 = growth as untreated, 0 = no growth, -100 = all killed); conditions: 10 µM unless noted
The panel holds about 83,000 compounds, 20% with a hit somewhere; the sample as a whole holds those more often. Activity calls are given as the source filed them. The calls were made as follows: active = growth percent below 10; inactive = the rest.
// growth lookup, one value per entry

[[record]]
molecule = "N#CC(C#N)N=Nc1ccc(Br)cc1"
result = "96.3% (inactive)"

[[record]]
molecule = "CN1CCN(C(=O)c2ccc(NC(=O)c3cc4c(nn3)NCCN4Cc3cc(Cl)ccc3Cl)cc2)CC1"
result = "92.2% (inactive)"

[[record]]
molecule = "CCn1c(SCC(=O)N/N=C(\\C)c2ccc(Cl)cc2)nc2c1c(=O)n(C)c(=O)n2C"
result = "99.2% (inactive)"

[[record]]
molecule = "Fc1cnccc1C1CC(c2ccc(N3CCNCC3)cc2)=NN1 (stereo not given)"
result = "97.5% (inactive)"

[[record]]
molecule = "Oc1c(Br)cc(Br)c2ccc(Cn3cc(-c4ccccc4C(F)(F)F)nn3)nc12"
result = "94.3% (inactive)"

[[record]]
molecule = "OCCn1cc(-c2nc(-c3c[nH]c4ncccc34)cs2)c2ccccc21"
result = "88.1% (inactive)"

[[record]]
molecule = "COc1ccc(C(C)=O)cc1S(=O)(=O)Nc1c(N)nc(SC)[nH]c1=O"
result = "109% (inactive)"

[[record]]
molecule = "CC/C(=C(/c1ccc(Cl)cc1)c1ccc(OCCN(C)C)cc1)c1ccc(Cl)cc1"
result = "78.4% (inactive)"

[[record]]
molecule = "COC(CC(F)F)c1cn(S(=O)(=O)c2ccc(C)cc2)c2ccccc12 (stereo not given)"
result = "29.2% (inactive)"


Okay, now this molecule:
Name the recorded growth for N#Cc1nc(-c2ccc(F)cc2)oc1S(=O)(=O)N1CCOCC1 .
95.8% (inactive)

====

tested on: SK-MEL-28 melanoma; assay: NCI-60 one-dose screen, 48 h (100 = growth as untreated, 0 = no growth, -100 = all killed); conditions: 10 µM unless noted
About 83,000 compounds went through this panel and 20% of them were active in at least one assay; those are over-represented in the sample as a whole.
measure: growth (%)
Number only, in %; omit the unit.

Consider the following illustrative entries.
[[record]]
molecule = "Clc1ccc2c(c1)C(c1c[nH]c3ccccc13)(c1c[nH]c3ccccc13)CCO2"
readout_number = 95.3

[[record]]
molecule = "COC(=O)c1c(C)nc(C)c2c1C(=O)C(Br)=C(NCc1ccccc1)C2=O"
readout_number = 56.4

[[record]]
molecule = "Cc1ccc(/C=C2\\COc3ccc(O)cc3C2=O)cc1"
readout_number = 103

[[record]]
molecule = "O=C(Nc1cccc(-c2ccc(N3CCOCC3)nn2)c1)Nc1cccc(C(F)(F)F)c1"
readout_number = 88.7

[[record]]
molecule = "O=S(=O)(NCCCNc1nccc(-c2c(-c3ccc(F)c(O)c3)nc3occn23)n1)c1ccc(Cl)cc1"
readout_number = 30

[[record]]
molecule = "CCN(CC)c1ccc(\\C=N/N=C(N)/C(N)=N\\N=C/c2ccc(N(CC)CC)cc2)cc1"
readout_number = 105


The record that follows has no growth shown yet.
Query (molecule): COc1cc(/C=C2/C=C(c3ccccc3)N(CCc3ccc(S(N)(=O)=O)cc3)C2=O)cc(OC)c1OC ; field requested: growth
119
